Values compiled from paper PMC4673829.

# TGT: JARID1A PHD3 domain (for ITC)
# ASSAY NOTES: ITC; H3G4 (5 mM) titrated to JARID1A (330 μM), H3G4 (3 mM) titrated to TAF3 (200 μM); 19 injections; Microcal Auto-iTC200; one set of sites model
Ends that are not written are not given here.
TEST READOUT: Kd (µM)
Numeric answer only, unit µM assumed.

Problem: # input binder: ARTGQTARKS-OH [10-mer H3G4 histone peptide] ; wanted: its Kd
Solution: 88
